- Tested on: SUDIPGXIII (diffuse intrinsic pontine glioma line)
- TEST_METHOD_NOTES: growth inhibition (% activity, log2 RLU normalised to DMSO / staurosporine); higher = more growth inhibition
- SETUP_CONDITIONS: 33 µM
Measured growth inhibition, listed per entry for reference.

# MOLECULE, growth inhibition [%]
rows = [
    ("CCC1=C[C@H]2CN3CCc4c([nH]c5ccccc45)[C@](C(=O)OC)(C2)[C@H]13", -2.44),
    ("CC(NC(C)(C)C)C(=O)c1cccc(Cl)c1 (stereo unspecified)", 0.264),
    ("CN1C(=O)COc2c(C(=O)NC3CN4CCC3CC4)cc(Cl)cc21 (stereo unspecified)", 1.12),
    ("Cc1cc(C(C#N)c2ccc(Cl)cc2)c(Cl)cc1NC(=O)c1cc(I)cc(I)c1O (stereo unspecified)", 3.29),
    ("CCOC(=O)c1cncn1[C@H](C)c1ccccc1", 0.0732),
    ("COC(=O)C1=CCCN(C)C1", 1.1),
    ("C=C(C)[C@@H]1[C@H]2OC(=O)[C@@H]1[C@]1(O)C[C@H]3O[C@]34C(=O)O[C@H]2[C@]14C", 0.384),
    ("Cc1cccc(Cc2c[nH]cn2)c1C", 0.33),
    ("NCC(CC(=O)O)c1ccc(Cl)cc1 (stereo unspecified)", 0.136),
    ("CN1[C@@H]2C[C@@H](OC(=O)[C@H](CO)c3ccccc3)C[C@H]1[C@@H]1O[C@@H]12", 0.487),
    ("CN1C(=O)CCS(=O)(=O)C1c1ccc(Cl)cc1 (stereo unspecified)", -0.0547),
]
